method: HoxA9-arrested leukemia cell differentiation promoters – flow cytometry, MLPCN library, primary screen (AID 624256);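 further: cells exposed to compound for four days before flow analysis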
applied_conditions: ER-HoxA9 myeloid progenitors, lysozyme-GFP differentiation, at 10 µM; measured here: differentiation confirmed by MAC1 staining, stronger effect = higher value
The campaign covered roughly 360,000 compounds. About 3,700 (1%) were called active. Roughly 2% stayed inconclusive and do not appear here. The list comes from a sample in which actives are over-represented; it also holds close analogues and randomly drawn compounds.
attribute_measured: GFP+ MAC1+ double positive (%)
Expressed in %, but write only the number.

Find the recorded GFP+ MAC1+ double positive belonging to CCc1nc2c(OCCOc3ccccc3)cccn2c1N(C)C(=O)c1ccc(OC)cc1 and report it.
0.8

Endpoint output: GFP+ MAC1+ double positive of COc1ccc2nc(N3C(=O)C(O)=C(C(=O)c4ccco4)C3c3ccco3)sc2c1 (stereo not given) . Value?
0.8

Report GFP+ MAC1+ double positive for C[C@H](NC(=O)c1nc[nH]c1C(=O)NCC(=O)OC(C)(C)C)C(=O)OCc1ccccc1 please.
0.8

Could you tell me which GFP+ MAC1+ double positive is on file for CN(CC(=O)Nc1cccc(F)c1)C(=O)CC1CCCC1 ?
0.8

Give its GFP+ MAC1+ double positive value. Item: O=C1C(Sc2cccc(F)c2)=C[C@@]2(O)CC[C@@H](O)[C@]1(Sc1cccc(F)c1)[C@H]2O
2
